Numbers sourced from patent US20020058247A1.

target: T1, Full length recombinant HBcAg (rHBcAg) encompassing residues 1-183 (hepatitis B virus, UniProt P03146 1-183); assay: competition EIA, HBcAg coated 5 ug/ml, peptide 50 ug/ml together with mAb 4-2 (competitor); OD of bound mAb
T1 construct: range 1-183; also called hepatitis B virus core antigen
T1 sequence (P03146 whole entry, the tested form may be a part): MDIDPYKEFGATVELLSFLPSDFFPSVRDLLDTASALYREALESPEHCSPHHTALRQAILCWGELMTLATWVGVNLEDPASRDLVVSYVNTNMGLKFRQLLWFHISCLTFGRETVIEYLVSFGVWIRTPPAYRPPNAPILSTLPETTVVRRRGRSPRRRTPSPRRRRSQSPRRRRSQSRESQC
Here the recorded OD at 490 nm is given for each entry.

binder	result
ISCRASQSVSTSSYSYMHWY [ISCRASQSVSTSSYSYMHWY (SEQ. ID. No. 17)]	1.56 OD

// query OD at 490 nm value for entry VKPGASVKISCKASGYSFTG (also called Peptide # 25) [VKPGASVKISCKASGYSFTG (SEQ. ID. No. 28)]
1.22 OD

Note, next up: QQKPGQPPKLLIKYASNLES [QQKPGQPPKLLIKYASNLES (SEQ. ID. No. 19)]
1.23 OD

Note, next up: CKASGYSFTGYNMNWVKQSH (also called Peptide # 26) [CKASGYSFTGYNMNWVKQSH (SEQ. ID. No. 29)]
1.25 OD

Note, next up: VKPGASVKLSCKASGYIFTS (also called Peptide # 2; Pept. #2) [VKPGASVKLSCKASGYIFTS (SEQ. ID. No. 5)]
0.395 OD

Note, next up: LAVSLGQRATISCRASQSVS [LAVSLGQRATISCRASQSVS (SEQ. ID. No. 16)]
0.998 OD
